# Test system: PPARg:RXRa IVT, anti-PPARg (NR concentration 270 nM, RXRa partner concentration 90 nM)
# PROCEDURE DETAILS: PBM binding z-score (relative to random genomic background probes); higher = stronger binding; sequences stand for … in GC…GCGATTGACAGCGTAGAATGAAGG
READOUT LABEL: PBM binding z-score

sequence_record=GGAACGAGGGCAAAGTTGATCGCATCTGTCGACG readout_label="PBM binding z-score" readout_value=4.13
sequence_record=CAGCGTAGGTCAGGGCCAGTATAGGAGGAACGTT readout_label="PBM binding z-score" readout_value=1.03
sequence_record=ACAAACAGGTGAGTGAAGGTAACTCAGCTGGACG readout_label="PBM binding z-score" readout_value=1.19
sequence_record=TCTATTAGTTGATTAGGGCAACCGCAACAGCGGA readout_label="PBM binding z-score" readout_value=1.59

----------
# Tested on: LXRa:RXRa (NR concentration 270 nM, RXRa partner concentration 90 nM)
# PROCEDURE DETAILS: PBM binding z-score (relative to random genomic background probes); higher = stronger binding; sequences stand for … in GC…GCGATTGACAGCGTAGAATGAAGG
READOUT LABEL: PBM binding z-score

sequence_record=TGAATGAGGTTATAAGATCAGGCAACGTTGCAAA readout_value=1.51
sequence_record=GATACAGGGTCAGCTAGAGGCCCGAGTATGGAAA readout_value=2.31
sequence_record=TCTTCTAGATCAGCAGGTTAAGAAAGCTGGCCAA readout_value=0.0628
sequence_record=ACAGACAGGTGATCAAGGTAACTCAGGCTATCAT readout_value=-0.068
sequence_record=TAGCCAAGGTCATGGGCCAGTATACCACGCGAAC readout_value=5.41
sequence_record=GATAGCAGGCCATTTGGGTCACTCAATGACGGGC readout_value=-0.115
sequence_record=TCCAGTAGGTTAGGGGCATTCAGAATGGCGTCGA readout_value=0.635
sequence_record=CCTCGGAGGACAGAAGATCAGAGCTGTCCGCTTT readout_value=-0.485
sequence_record=CGAACAAGGGCATGAGTTGATAGCAAATGCCGAT readout_value=0.00346
sequence_record=TCTGCTAGGTCAGTAGGTCAGCTAACGAGCTGCC readout_value=1.55
sequence_record=CCTACTGGGCCATCGGGTCATTGATATCAACGTT readout_value=1.03

----------
# Tested on: RXRa DBDmut IVT, anti-RXR (DBD mutation: RXRa K156A/R161A, NR concentration 90 nM)
# PROCEDURE DETAILS: PBM binding z-score (relative to random genomic background probes); higher = stronger binding; sequences stand for … in GC…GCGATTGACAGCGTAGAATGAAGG
// Condition not met strictly below 1 in PBM binding z-score; Condition met otherwise

sequence_record=GCATATAGGTAATACAAGGGGAAAGTCCGATTGT assigned_category="Condition not met"
sequence_record=CCTCGGAGGACAGAAGGTCAGAGCCGTCCGCTTT assigned_category="Condition not met"
sequence_record=AGTCAAAGTTCACTAGGTAACCTAAGATTCAGCT assigned_category="Condition met"
sequence_record=CAAACTAGGCCACCGGAAGGTCAAAGTCCGCATG assigned_category="Condition not met"
sequence_record=TCATATAGGTAAAGGGTGAAAGTCGGTGTGGTAA assigned_category="Condition met"
sequence_record=ACTAGCAGACCAAGGGTCACTCAAGATTAGTCCG assigned_category="Condition not met"
sequence_record=GCTGGTAGGTCAGGTTGGTCAGCTAACGGGTACG assigned_category="Condition not met"
sequence_record=TAGCCTAGGTCATTCAGGAGCCAGTATAGAAAGC assigned_category="Condition met"
sequence_record=TCTTGTAGATCAACAGGAGATTAAGAAAGATCGA assigned_category="Condition not met"
sequence_record=CCAGACAGGTGAGAAGGTAACTGAGCCTCGATTA assigned_category="Condition not met"
sequence_record=AGAAAGAGGTTATACGTAGATCAGGGAAGAAAGT assigned_category="Condition met"
sequence_record=TAGCCTAGGTCGTGCGGGCCAGTATAGTGTCGGC assigned_category="Condition not met"
sequence_record=GCTGCTAGGTTAGGTTGGTCAGCTAACGGGTACG assigned_category="Condition not met"
sequence_record=GCGACTGGGGCATCAGCAAGTTACCATAACTTAA assigned_category="Condition not met"
sequence_record=TCTCGGTGGACACGAAAGGTCAGAGCTCGACATC assigned_category="Condition not met"
sequence_record=AAAATGAGGTTATTAAGATCAGGGAATTGCGGTC assigned_category="Condition met"
sequence_record=TGTCAAAGTTTAAAGGTAACGTAAGTATCCACAC assigned_category="Condition met"
sequence_record=CCAACTAGGTCAGAACAGGACAGTGAAGGATGAT assigned_category="Condition met"
sequence_record=AGTCAAAGTTCATCTAGGTAACGTAGGATATGCT assigned_category="Condition met"
sequence_record=GGAACGATGGCATTCGAGTTGATAGCATGGCGAT assigned_category="Condition not met"
sequence_record=ATCTCTAGGTAAGGCTCAGTTCAGTGAAGAACGC assigned_category="Condition not met"
sequence_record=GATACAGGGTCAAGACCAGAGTACGCGTATTGAT assigned_category="Condition met"
sequence_record=GCGACTGGAGCATCAGCAGGTTACCATAACTTAA assigned_category="Condition not met"
sequence_record=ACTATTTGTTGACTTAGGGCAACCGATACGACGC assigned_category="Condition not met"
sequence_record=CAAACTAGGTCACCGGAAGGTCAACGTCCGCATG assigned_category="Condition met"
sequence_record=TTACCAAGGTGAAGGTCGTAGATCCCTCTGTAGA assigned_category="Condition not met"
sequence_record=ATCGAAAGGTCGAAGTTGAGTATACCCACCCGAA assigned_category="Condition met"
